# test-name: Compound solubility in water
# Assay type: physicochemical
Quick rule: solubility of at least 10 µg/mL means true, below that means false.

Consider the worked cases shown below.
CC1CCC(NC(=O)c2cnc3n(c2=O)CCS3)CC1 (centres unmarked) | true
Cc1cccc2ncc(C(=O)NC3CCC(c4ccccc4)CC3)c(=O)n12 (centres unmarked) | false

*Q* Confirm if solubility reported for the compound CCCCC1CCC(NC(=O)c2cnc3n(c2=O)C(C)CS3)CC1 (centres unmarked) is 10 µg/mL or above.
*A* false

*Q* solubility >= 10 µg/mL for O=C(NC1Cc2ccccc2C1)c1cnc2sccn2c1=O ?
*A* false

*Q* Would you say CCc1ccc(CNC(=O)c2cnc3sccn3c2=O)cc1 shows solubility at minimum 10 µg/mL?
*A* true

*Q* Check this compound for solubility at or above 10 µg/mL: O=C(NC1CCCC2(CCCCO2)C1)c1cnc2n(c1=O)CCS2 (centres unmarked)
*A* true

*Q* Reported solubility reaches at least 10 µg/mL for C#Cc1ccc(NC(=O)c2cnc3n(c2=O)CCS3)cc1 ?
*A* false

*Q* Check this compound for solubility at or above 10 µg/mL: CN1Cc2ccc(NC(=O)c3cnc4n(c3=O)CCS4)cc2C1
*A* true

*Q* Determine whether this compound has solubility no lower than 10 µg/mL: CCc1ccc(NC(=O)c2cnc3ccccn3c2=O)cc1
*A* false

*Q* solubility >= 10 µg/mL for O=C(Nc1ccc2c(c1)CCC2)c1cnc2n(c1=O)CCS2 ?
*A* false

*Q* Please check the record Cc1cccc2ncc(C(=O)NC3CCc4ccccc4C3)c(=O)n12 (centres unmarked) and state if its solubility is at or above 10 µg/mL.
*A* false

*Q* Decide: is the reported value of solubility for O=C(Nc1ccc(-n2ccnc2)cc1)c1cnc2n(c1=O)CCS2 equal to or greater than 10 µg/mL?
*A* false

*Q* Please tell me: is the compound CCc1ccc(CCNC(=O)c2cnc3sccn3c2=O)cc1 at or over 10 µg/mL in terms of solubility?
*A* false

*Q* Does solubility meet or surpass 10 µg/mL for Cc1cccc2ncc(C(=O)NC3CCOCC3)c(=O)n12 ?
*A* true

*Q* Given the entry CC(C)c1ccc(NC(=O)c2cnc3sccn3c2=O)cn1 , answer whether its solubility meets or surpasses 10 µg/mL.
*A* true

*Q* Determine whether this compound has solubility no lower than 10 µg/mL: CC(Cc1ccc(Cl)cc1)NC(=O)c1cnc2n(c1=O)CCS2 (centres unmarked)
*A* true

*Q* Please check the record Cc1cccc2ncc(C(=O)Nc3ccc4c(c3)OCCO4)c(=O)n12 and state if its solubility is at or above 10 µg/mL.
*A* false

---

# test-name: Compound solubility in water
# Type: physicochemical
Overview of recorded log10 of solubility for various molecules
In plain terms, each number is the log10 of measured solubility in µg/mL.

Some entries whose results are on file:
CCCCc1ccc(NC(=O)c2cnc3n(c2=O)CCS3)cc1 | -0.70
CCC1CCC(NC(=O)c2cnc3sccn3c2=O)CC1 (stereo not shown) | 0.69
O=C(NCC1COc2ccccc2O1)c1cnc2sccn2c1=O (stereo not shown) | 1.35
CCC(C)c1ccc(NC(=O)c2cnc3n(c2=O)CCS3)cc1 (stereo not shown) | -0.52
Cc1cccc2ncc(C(=O)NC3CCC(C)CC3)c(=O)n12 (stereo not shown) | 1.27

*Q* Could you tell me which log10 of solubility is on file for O=C(NC1CCCCCC1)c1cnc2n(c1=O)CCS2 ?
*A* 1.32

*Q* Which measured log10 of solubility value corresponds to CCC(C)c1ccc(NC(=O)c2cnc3ccccn3c2=O)cc1 (stereo not shown) ?
*A* -0.52

*Q* Please look up its log10 of solubility: Cc1cccc2ncc(C(=O)NC3CCCCCC3)c(=O)n12
*A* 0.97

*Q* Looking for the measured log10 of solubility of O=C(NC1CCOCC1)c1cnc2n(c1=O)CCS2 , can you help?
*A* 1.42

*Q* State the recorded log10 of solubility for this entry: Cc1cccc2ncc(C(=O)NC3CCCc4ccccc43)c(=O)n12 (stereo not shown)
*A* 1.14

---

# study-system: glucocerebrosidase (Gcase) (Homo sapiens)
# Construct: micellar solution containing 10 nM GCase and 100 nM saposin C (Enzo ALX-201-262-C050)
# Sequence (P04062 40-536): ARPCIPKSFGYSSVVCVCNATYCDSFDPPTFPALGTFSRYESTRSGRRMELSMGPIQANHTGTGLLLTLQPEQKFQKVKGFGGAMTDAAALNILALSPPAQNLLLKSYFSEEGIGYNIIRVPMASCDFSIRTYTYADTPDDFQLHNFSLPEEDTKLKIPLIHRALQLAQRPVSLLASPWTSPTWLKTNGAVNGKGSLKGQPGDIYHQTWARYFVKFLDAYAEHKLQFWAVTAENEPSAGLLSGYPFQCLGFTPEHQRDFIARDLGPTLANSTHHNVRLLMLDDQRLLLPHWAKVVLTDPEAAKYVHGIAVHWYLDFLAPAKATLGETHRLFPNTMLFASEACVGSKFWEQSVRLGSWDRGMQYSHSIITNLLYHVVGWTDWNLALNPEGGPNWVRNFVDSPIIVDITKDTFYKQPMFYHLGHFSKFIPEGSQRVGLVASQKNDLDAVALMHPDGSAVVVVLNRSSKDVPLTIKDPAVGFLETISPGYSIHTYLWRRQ
# test-name: Glucocerebrosidase (Gcase) activation assay, 4-methylumbelliferyl-beta-D-glucopyranoside substrate, with saposin C
# Format: biochemical
# condition: read-out: Percent Gcase Activation 1 μM Test Compound
quantity-measured: activation at 1 µM

These solved cases illustrate the format of a correct answer.
CCCCc1ccc(NC(=O)c2cnc3scc(-c4ccccc4)n3c2=O)cc1 | > 20%
CCN1CCN(c2ccc(NC(=O)c3cnc4cccc(C)n4c3=O)cc2)CC1 | 5 to 20%
O=C(NC1CCCCCC1)c1cnc2n(c1=O)CCS2 | 5 to 20%
Cc1cccc2ncc(C(=O)NCCOc3ccccc3)c(=O)n12 | 5 to 20%
CCOc1ccc(NC(=O)c2cnc3scc(C)n3c2=O)cc1 | 5 to 20%

*Q* Value lookup for activation at 1 µM; key = COCC#Cc1ccc(NC(=O)c2cnc3n(c2=O)CCS3)cc1
*A* 5 to 20%

*Q* Name the recorded activation at 1 µM for O=C(NC1Cc2ccccc2C1)c1cnc2sccn2c1=O .
*A* > 20%

*Q* What does the data say about its activation at 1 µM? Entry: O=C(NCC1COc2ccccc2O1)c1cnc2sccn2c1=O (centres unmarked)
*A* < 5%

---

The compounds listed here are annotated with their activation at 0.1 µM.
# study-system: glucocerebrosidase (Gcase) (Homo sapiens)
# Construct: micellar solution containing 10 nM GCase and 100 nM saposin C (Enzo ALX-201-262-C050)
# Sequence (P04062 40-536): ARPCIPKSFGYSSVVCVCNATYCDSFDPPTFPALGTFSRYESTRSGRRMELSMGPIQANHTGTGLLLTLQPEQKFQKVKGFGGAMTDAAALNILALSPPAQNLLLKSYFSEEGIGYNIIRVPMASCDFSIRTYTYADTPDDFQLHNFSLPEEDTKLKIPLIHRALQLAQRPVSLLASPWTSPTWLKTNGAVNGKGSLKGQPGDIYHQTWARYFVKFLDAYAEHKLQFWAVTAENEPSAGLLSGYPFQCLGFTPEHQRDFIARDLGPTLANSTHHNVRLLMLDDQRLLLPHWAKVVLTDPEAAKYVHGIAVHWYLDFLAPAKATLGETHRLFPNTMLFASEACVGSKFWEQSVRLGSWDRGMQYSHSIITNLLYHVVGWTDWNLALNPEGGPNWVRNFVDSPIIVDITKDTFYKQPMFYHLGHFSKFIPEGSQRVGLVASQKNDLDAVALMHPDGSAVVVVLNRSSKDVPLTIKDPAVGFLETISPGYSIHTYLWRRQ
# test-name: Glucocerebrosidase (Gcase) activation assay, 4-methylumbelliferyl-beta-D-glucopyranoside substrate, with saposin C
# Type: biochemical
# condition: read-out: Percent Gcase Activation 0.1 μM Test Compound

Example cases with answers are listed next.
CCCCC1CCC(NC(=O)c2cnc3cccc(C)n3c2=O)CC1 (centres unmarked) | 5 to 20%
CCC(C)c1ccc(NC(=O)c2cnc3n(c2=O)CCS3)cc1 (centres unmarked) | 5 to 20%
O=C(NC1CCC2(CCCCO2)CC1)c1cnc2n(c1=O)CCS2 (centres unmarked) | < 5%

*Q* Endpoint output: activation at 0.1 µM of O=C(Nc1ccc(N2CCCCC2)cc1)c1cnc2n(c1=O)CCS2 . Value?
*A* < 5%

*Q* I'd like to know its activation at 0.1 µM. The compound in question is Cc1cccc2ncc(C(=O)NC3CCCCCC3)c(=O)n12
*A* < 5%

*Q* I am curious: what activation at 0.1 µM value has been reported for Cc1cccc2ncc(C(=O)NC3CCC(C)CC3)c(=O)n12 (centres unmarked) ?
*A* < 5%

*Q* Query (compound): CC(Cc1ccc(Cl)cc1)NC(=O)c1cnc2n(c1=O)CCS2 (centres unmarked) ; field requested: activation at 0.1 µM
*A* < 5%

*Q* Entry CCCCc1ccc(NC(=O)c2cnc3cccc(C)n3c2=O)cc1 : reported activation at 0.1 µM = ?
*A* 5 to 20%
